biological target: HIV-1 strain SC422661.8 envelope (gp120) (HIV-1); test: cell-based or functional assay
neutralization IC50 by entry:

binder	neutralization IC50 (mg/L)
12A12 IgG (antibody, V domains shown) VH: SQHLVQSGTQVKKPGASVRISCQASGYSFTDYVLHWWRQAPGQGLEWMGWIKPVYGARNYARRFQGRINFDRDIYREIAFMDLSGLRSDDTALYFCARDGSGDDTSWHLDPWGQGTLVIVSA VL: DIQMTQSPSSLSASVGDRVTITCQAGQGIGSSLQWYQQKPGKAPKLLVHGASNLHRGVPSRFSGSGFHTTFSLTISGLQRDDFATYFCAVLEFFGPGTKVEIKR	0.2
3BNC55 IgG (antibody, V domains shown) VH: QVQLVQSGTAVKRPGASVRVSCQASGYTFTDYFIYWWRQAPGQGLEWLGWINPLTSQPSYPSRFQGRLTLTRDTFDEMLYMDLRGLRSDDTGIYFCARRHSDYCDFDIWGSGTQIIVSS VL: DIQMTQSPSSLSASVGDKVTITCQTSAGYLNWYQQRRGRAPKLLMYDGSRLVTGVPSRFSGRRWGTQYNLTIGSLQPEDIATYYCQVYEFFGPGTRLDLKS	0.3
3BNC60 IgG (antibody, V domains shown) VH: QVHLSQSGAAVTKPGASVRVSCEASGYKISDHFIHWWRQAPGQGLQWVGWINPKTGQPNNPRQFQGRVSLTRQASWDFDTYSFYMDLKAVRSDDTAIYFCARQRSDFWDFDVWGSGTQVTVSS VL: DIQMTQSPSSLSARVGDTVTITCQANGYLNWYQQRRGKAPKLLIYDGSKLERGVPARFSGRRWGQEYNLTINNLQPEDVATYFCQVYEFIVPGTRLDLKRTVA	0.1

Reference source for all entries: patent US20130209454A1
